target: furin, P09958; assay: furin cleavage Z-score vs untreated control; higher = more cleavage, active = 3.5 or more, inactive = 1 or less, 8 variable residues between constant flanks; conditions: 15 min;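 further: purified furin at 1:10 enzyme:substrate in 50 mM HEPES pH 7.5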
Sequence (P09958 whole entry): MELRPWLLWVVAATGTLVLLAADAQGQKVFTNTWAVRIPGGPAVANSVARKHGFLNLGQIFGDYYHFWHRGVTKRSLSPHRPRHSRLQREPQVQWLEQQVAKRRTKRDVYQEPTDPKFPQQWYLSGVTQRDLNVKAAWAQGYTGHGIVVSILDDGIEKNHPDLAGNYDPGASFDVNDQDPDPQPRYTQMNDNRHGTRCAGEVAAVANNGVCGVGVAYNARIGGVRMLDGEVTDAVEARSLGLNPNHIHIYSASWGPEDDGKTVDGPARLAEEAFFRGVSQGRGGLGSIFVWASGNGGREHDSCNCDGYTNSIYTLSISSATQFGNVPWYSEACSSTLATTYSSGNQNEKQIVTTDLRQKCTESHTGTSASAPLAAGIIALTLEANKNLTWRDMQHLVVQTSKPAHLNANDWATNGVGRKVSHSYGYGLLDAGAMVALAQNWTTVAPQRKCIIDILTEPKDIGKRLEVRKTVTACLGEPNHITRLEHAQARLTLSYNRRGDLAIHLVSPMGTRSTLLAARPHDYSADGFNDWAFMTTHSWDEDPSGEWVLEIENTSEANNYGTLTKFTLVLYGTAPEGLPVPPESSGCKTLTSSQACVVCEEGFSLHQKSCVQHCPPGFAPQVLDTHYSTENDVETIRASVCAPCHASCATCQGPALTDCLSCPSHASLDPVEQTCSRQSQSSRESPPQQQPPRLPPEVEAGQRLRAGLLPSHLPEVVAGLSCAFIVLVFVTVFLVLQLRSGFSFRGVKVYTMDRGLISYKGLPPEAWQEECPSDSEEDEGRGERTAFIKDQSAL
Some of the results follow. The true hit rate is not given.
Please go through the items and note down their furin cleavage Z-score.
Numbers only.

CANLGRLYRSAGNASASA [FS-1546] ... 0.0213
CAAPQRLPRSAGNASASA [FS-1305] ... 4.41

Field: furin cleavage Z-score. Fill in for each record below.
1. CAWDWICEVLAGNASASA [HC1151]
2. CAVDCCSMSYAGNASASA [HC2011]

Result:
1. 1.19
2. -0.617
